- System: SNB-75 CNS
- RUN_DESCRIPTION: NCI-60 one-dose screen, 48 h (100 = growth as untreated, 0 = no growth, -100 = all killed)
- COND: 10 µM unless noted
The panel holds about 83,000 compounds, 20% with a hit somewhere; the sample as a whole holds those more often.
Decide by growth: equal to or exceeding 90% means Y, less means N.

Challenge: Confirm if growth reported for the compound Oc1ccc(Cl)cc1Cc1cc(Cl)ccc1O is 90% or above.
Response given: N

Challenge: Repeat with Cc1cc(C)c([I+]c2c(C)cc(C)cc2C)c(C)c1
Response given: N

Challenge: Repeat with CCCCCCCCCCCCCCCC[N+]1(C)CCCC1c1cccnc1 (configuration not stated)
Response given: N

Challenge: Repeat with O=C(c1ccccc1)C(O)C(Br)(CBr)c1ccccc1 (configuration not stated)
Response given: Y

Challenge: Repeat with COC(=O)c1ccc(=O)c2nc3/c(=C/O)c(O)cc(=O)c3[nH]c12
Response given: N

Challenge: Repeat with NC(=S)N/N=C\c1nccc2c(N)cccc12
Response given: N

Challenge: Repeat with COC(=O)C(=[N+]=[N-])C(=O)c1ccc([N+](=O)[O-])o1
Response given: Y

Challenge: Repeat with COc1cc(NC(=O)C2=C(C)NC(C)=C(C(=O)Nc3cc(OC)c(Cl)cc3OC)C2c2cccc([N+](=O)[O-])c2)c(OC)cc1Cl
Response given: N

Challenge: Repeat with O=C(C[P+](c1ccccc1)(c1ccccc1)c1ccccc1)c1ccccc1
Response given: N

Challenge: Repeat with O=C1C=CC(=O)c2c(O)c(CO)c(CO)c(O)c21
Response given: N

----------
- Test system: A549/ATCC NSCLC
- RUN_DESCRIPTION: NCI-60 one-dose screen, 48 h
- COND: 10 µM unless noted
About 83,000 compounds went through this panel and 20% of them were active in at least one assay; those are over-represented in the sample as a whole. The source made the active and inactive calls. Rule for the calls: active = growth percent below 10; inactive = the rest.
Pick one and only one: Y for active, N for inactive

Challenge: How was CN(C)c1ccc(/C=C/c2sc3ccc4ccccc4c3[n+]2C)cc1 classified in this test?
Response given: Y

Challenge: Repeat with O=C1C=CC(=O)N1c1cc(Cl)c(Cl)cc1Cl
Response given: N

Challenge: Repeat with Oc1ccc(Cl)cc1C(c1cc(Cl)ccc1O)C(Cl)(Cl)Cl
Response given: N

Challenge: Repeat with O=C(Cc1nc2cc(Cl)c(Cl)cc2nc1CC(=O)c1cccnc1)c1cccnc1
Response given: N

Challenge: Repeat with CN(C)c1ccc(C(C#N)(c2ccccc2)c2ccc(N(C)C)cc2)cc1
Response given: N

----------
- Test system: UACC-62 melanoma
- RUN_DESCRIPTION: NCI-60 one-dose screen, 48 h
- COND: 10 µM unless noted
The panel holds about 83,000 compounds, 20% with a hit somewhere; the sample as a whole holds those more often. Calls of active or inactive are those of the source. The calls were made as follows: active = growth percent below 10; inactive = the rest.
Pick one and only one: active, inactive

Challenge: How was CN1CCC(CN2c3ccccc3Sc3ccccc32)C1 (stereo not drawn) classified in this test?
Response given: inactive

Challenge: Repeat with C=C(C(N)=O)C(N)C(=O)O (stereo not drawn)
Response given: inactive

Challenge: Repeat with CC(C)(C)CC(C)(C)c1ccc(OCCOCCSC(=N)N)cc1
Response given: inactive

Challenge: Repeat with O=C1C=CC(=O)N1c1cc(Cl)c(Cl)cc1Cl
Response given: inactive

Challenge: Repeat with C[n+]1ccccc1C[n+]1ccccc1
Response given: inactive

Challenge: Repeat with C(=N\Nc1ccc2ccccc2n1)/c1ccccn1
Response given: active

Challenge: Repeat with Oc1ccc2c(c1)CCc1ccccc1-2
Response given: inactive

Challenge: Repeat with OC(CSc1ccccc1)CN1CCN(c2ccc(Cl)cc2)CC1 (stereo not drawn)
Response given: inactive

Challenge: Repeat with COC(=O)c1nc(=S)[nH]c(C(=O)OC)c1C(=O)c1ccc(Cl)c(Cl)c1
Response given: inactive

Challenge: Repeat with CCC1CCCCN1C(=S)N/N=C(\C)c1ccccn1 (stereo not drawn)
Response given: active

Challenge: Repeat with COc1ccc2c(c1)c(CC(=O)O)c(C)n2C(=O)c1ccc(Cl)cc1
Response given: inactive

Challenge: Repeat with CCCN(CCC)C(=O)c1ccc(C)cc1
Response given: inactive

Challenge: Repeat with O=C(C[P+](c1ccccc1)(c1ccccc1)c1ccccc1)c1ccccc1
Response given: inactive

Challenge: Repeat with O=C(O)c1cccc2cccc(-c3c4ccc(=O)c(O)c-4oc4c(O)c(O)ccc34)c12
Response given: inactive

Challenge: Repeat with CC1(C)OC2C(COC(c3ccccc3)(c3ccccc3)c3ccccc3)OC(c3c[nH]c4c(N)ncnc34)C2O1 (stereo not drawn)
Response given: inactive

Challenge: Repeat with O=C1C=Cc2ccccc2/C1=C/c1nc(-c2ccccc2)oc1O
Response given: inactive

Challenge: Repeat with COc1cc(NC(=O)C2=C(C)NC(C)=C(C(=O)Nc3cc(OC)c(Cl)cc3OC)C2c2cccc([N+](=O)[O-])c2)c(OC)cc1Cl
Response given: inactive

Challenge: Repeat with CCCCCCCCc1cc(Cl)c(O)c(Cl)c1
Response given: inactive
